method.notes: growth suppression of beta-catenin knockout HCT116, pilot screen, human colon tumor cells (AID 823);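 note: 0% = wells killed by 20 µM Hyamine and 100% = untreated DMSO cell wells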
condition.context: CellTiter-Glo, 60 h, at 10 µM, active compounds read low
Inconclusive results are not listed.
Just a reminder that ties go to No: only viability strictly below 90% counts as Yes.

Use these answered entries as a reference point.
I wonder whether Cc1nnc(SCC(=O)NC(C)c2ccccc2)[nH]c1=O (stereo unspecified) has viability below 90%. Can you tell?
No

I wonder whether Cc1noc(C)c1S(=O)(=O)N(CC(=O)Nc1ccc2c(c1)OCCO2)c1ccc(C(C)C)cc1 has viability below 90%. Can you tell?
Yes

I wonder whether CCN(CC)c1cccc(OC2=NS(=O)(=O)c3ccccc32)c1 has viability below 90%. Can you tell?
No

I wonder whether Cc1ccnc(N2C(=O)c3ccccc3C2Nc2ccccc2Cl)c1 (stereo unspecified) has viability below 90%. Can you tell?
Yes

Could you now consider this next compound?
I wonder whether CCCC(=O)N1CCN(c2ccc(C(=O)c3ccc(OC)c(Br)c3)cc2F)CC1 has viability below 90%. Can you tell?
No

---

Reported growth inhibition is given for each of the following molecules.
method.notes: OD615 S. cerevisiae growth inhibition, permissive medium, pilot counter-assay, permissive growth control for S. cerevisiae lifespan shortening project (AID 705)
condition.context: OD615, 24 h, at 10 µM, active compounds read high
Numeric answer only, unit % assumed.

Study these solved cases before continuing.
Specify growth inhibition for CC1(C)CC(N2CCN(c3ccccc3)CC2)=CC(=[N+]2CCCC2)C1 and stop.
-2.24

Specify growth inhibition for COc1cc(C(=O)NCC(c2cccnc2)N2CCN(c3ccccc3)CC2)cc(OC)c1OC (stereo not drawn) and stop.
-6.31

Specify growth inhibition for O=C(CC1SC(=Nc2ccccc2)N(CCCO)C1=O)Nc1ccc(Cl)cc1 (stereo not drawn) and stop.
-6.75

New cases:
Specify growth inhibition for COc1cc(C)c(N(C(C)=O)c2ccccc2)c(C)c1 and stop.
-10.7

Specify growth inhibition for O=C(Nc1ccc(F)cc1)C1CCCN(S(=O)(=O)c2cccc3cccnc23)C1 (stereo not drawn) and stop.
-10.2

Specify growth inhibition for CC(C)CCNC(=O)c1ccc2c(c1)N(Cc1ccccc1)C(=O)CS2=O (stereo not drawn) and stop.
-0.755

Specify growth inhibition for Cn1c(SCC(=O)Nc2cc(=O)n(C)c(=O)n2C)nnc1C12CC3CC(CC(C3)C1)C2 and stop.
2.36

Specify growth inhibition for COc1ccc(NC2c3ccccc3C(=O)N2c2cccnc2)cc1Cl (stereo not drawn) and stop.
4.54

---

method.notes: inhibitors of the yeast RAM network, pilot screen, dse1pr::URA3 reporter, 5-FOA selection (AID 869);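 note: 0% = DMSO wells with no growth and 100% = 10 µM 1-NA-PP1 with full growth; RAM network block rescues cells from 5-FOA so hits raise OD615 growth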
condition.context: S. cerevisiae dse1pr::URA3 5-FOA growth, OD615, 2 d; at 10 µM; active compounds read high; strain carries analog-sensitive mutant Cbk1 kinase
Tag: t if measured inhibition is not below 0.8%, f if it is.

Check if inhibition >= 0.8% (inclusive). Item: CN(C)CCNC(=O)c1cc2c(=O)n(C)c3ccccc3c2n1C
t

Check if inhibition >= 0.8% (inclusive). Item: CCOCCCNC(=O)Cc1cc(=O)[nH]c(=O)[nH]1
t

Check if inhibition >= 0.8% (inclusive). Item: COc1ccc(C(=O)Nc2ccc3oc(-c4cccc(F)c4)nc3c2)cc1OC
t

Check if inhibition >= 0.8% (inclusive). Item: O=C(Cn1nc(C(=O)O)c2ccccc2c1=O)NCC1CCCO1 (configuration not stated)
t

Check if inhibition >= 0.8% (inclusive). Item: COc1nc(Nc2ccc(C(C)=O)cc2)nc(OC)n1
t

Check if inhibition >= 0.8% (inclusive). Item: c1ccc2c(c1)CCN(CCCNc1nc3ccccc3n3cnnc13)C2
t

Check if inhibition >= 0.8% (inclusive). Item: CCCCS(=O)CC(COc1ccc(Cl)cc1)OC(=O)c1ccccc1 (configuration not stated)
f

Check if inhibition >= 0.8% (inclusive). Item: CCOC(=O)c1ccc(NC2c3ccccc3C(=O)N2c2cccnc2)cc1 (configuration not stated)
f

Check if inhibition >= 0.8% (inclusive). Item: O=C(CN1C(=O)CCC1=O)Nc1nc(-c2ccccn2)cs1
f

Check if inhibition >= 0.8% (inclusive). Item: CC1CN(C(=O)Nc2ccc3snnc3c2)c2ccccc21 (configuration not stated)
t

Could you now consider this next compound?
Check if inhibition >= 0.8% (inclusive). Item: CCOc1ccccc1Nc1nnc(C)c(=O)[nH]1
f

---

method.notes: inhibitors of the yeast RAM network, pilot screen, dse1pr::URA3 reporter, 5-FOA selection (AID 869);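 note: 0% = DMSO wells with no growth and 100% = 10 µM 1-NA-PP1 with full growth; RAM network block rescues cells from 5-FOA so hits raise OD615 growth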
condition.context: S. cerevisiae dse1pr::URA3 5-FOA growth, OD615, 2 d; at 10 µM; active compounds read high; strain carries analog-sensitive mutant Cbk1 kinase
measured.quantity: inhibition (%)
Numeric answer only, unit % assumed.

Study these solved cases before continuing.
Specify inhibition for COc1ccc(-c2oc(/N=C/N3CCOCC3)c(C#N)c2-c2ccc(OC)cc2)cc1 and stop.
2.25

Specify inhibition for CC(C)N1CCc2c(sc(NC(=O)c3ccc(S(=O)(=O)N4CCOCC4)cc3)c2C#N)C1 and stop.
0.75

Specify inhibition for COc1cccc(N(CC(=O)Nc2cccc(F)c2)S(C)(=O)=O)c1 and stop.
0.965

New cases:
Specify inhibition for CCOC(=O)c1c(-c2ccccc2)c(C(C)=O)c(=O)n(C)c1C and stop.
4.63

Specify inhibition for CCCCOC(=O)CCc1n[nH]c(=O)[nH]c1=O and stop.
2.12

Specify inhibition for Nc1nnc(CCc2ccccc2)s1 and stop.
1.77

Specify inhibition for COC(=O)c1ccc(C2c3c(n[nH]c3C)C(=O)N2c2ccc(C)cc2)cc1 (configuration not stated) and stop.
0.34

Specify inhibition for COc1ccc(CSc2nncn2N)cc1Br and stop.
1.08

---

method.notes: inhibitors of the yeast RAM network, pilot screen, dse1pr::URA3 reporter, 5-FOA selection (AID 869);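 note: 0% = DMSO wells with no growth and 100% = 10 µM 1-NA-PP1 with full growth; RAM network block rescues cells from 5-FOA so hits raise OD615 growth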
condition.context: S. cerevisiae dse1pr::URA3 5-FOA growth, OD615, 2 d; at 10 µM; active compounds read high; strain carries analog-sensitive mutant Cbk1 kinase
The source made the active and inactive calls.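 The calls were made as follows: active = inhibition over a set limit, the all-compound mean plus 3 SD, in both replicate runs; inconclusive = over that limit in just one replicate run; inactive = at or under that limit in both runs.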
measured.quantity: inhibition

Specify inhibition for CC1CCCN(C(=O)C2CCN(S(=O)(=O)c3cccc4cccnc34)CC2)C1 (stereo not given) and stop.
1.04% (inactive)

Specify inhibition for Cn1c(=O)oc2cc(S(=O)(=O)NC3CCCc4ccccc43)ccc21 (stereo not given) and stop.
3.1% (inactive)

Specify inhibition for Cc1ccc(C)c(N2CCN(CC(=O)Nc3ccc4[nH]c(=O)[nH]c4c3)CC2)c1 and stop.
0.03% (inactive)

Specify inhibition for Cc1ccc(/C(O)=C2\C(=O)C(=O)N(CCN(C)C)C2c2ccccc2F)cc1 (stereo not given) and stop.
-0.9% (inactive)

Specify inhibition for CCOCCCNC(=O)C(c1ccc(Cl)cc1)N1CCN(C(=O)c2ccco2)CC1 (stereo not given) and stop.
2.34% (inactive)

New cases:
Specify inhibition for Cc1noc(C)c1S(=O)(=O)N(CC(=O)NCc1ccc2c(c1)OCO2)c1ccc(C(C)C)cc1 and stop.
-0.54% (inactive)

Specify inhibition for CC(=O)OC(/C(O)=C(\C#N)c1nc2ccccc2[nH]1)c1ccccc1 (stereo not given) and stop.
1.63% (inactive)

Specify inhibition for CC(NC(=O)c1ccco1)C(c1cccs1)N1CCN(c2ccccc2)CC1 (stereo not given) and stop.
1.74% (inactive)

Specify inhibition for Cn1c(=O)oc2cc(S(=O)(=O)N3CCCC(C(=O)Nc4ccc5c(c4)OCCO5)C3)ccc21 (stereo not given) and stop.
1.42% (inactive)

Specify inhibition for CCOc1ccccc1NC(=O)Cn1cnc2c(nnn2-c2cccc(OC)c2)c1=O and stop.
3.82% (inactive)

---

Reported inhibition is given for each of the following molecules.
method.notes: inhibitors of the yeast RAM network, pilot screen, dse1pr::URA3 reporter, 5-FOA selection (AID 869);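 note: 0% = DMSO wells with no growth and 100% = 10 µM 1-NA-PP1 with full growth; RAM network block rescues cells from 5-FOA so hits raise OD615 growth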
condition.context: S. cerevisiae dse1pr::URA3 5-FOA growth, OD615, 2 d; at 10 µM; active compounds read high; strain carries analog-sensitive mutant Cbk1 kinase
Calls of active or inactive are those of the source.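 Rule for the calls: active = inhibition over a set limit, the all-compound mean plus 3 SD, in both replicate runs; inconclusive = over that limit in just one replicate run; inactive = at or under that limit in both runs.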

Study these solved cases before continuing.
Specify inhibition for COc1ccc(CC(=O)Nc2oc(-c3ccccc3)c(-c3ccccc3)c2C#N)cc1OC and stop.
1.75% (inactive)

Specify inhibition for CCOC(=O)CSCc1nc(-c2ccc(Cl)cc2)oc1C and stop.
1.97% (inactive)

Specify inhibition for CCN(CC)CCCNC(=O)Cn1cc2c(n1)CCC(C)C2 (stereo unspecified) and stop.
2.05% (inactive)

New cases:
Specify inhibition for Nc1c(C(=O)c2ccc(Br)s2)oc2ccccc12 and stop.
-0.045% (inactive)

---

method.notes: growth suppression of beta-catenin knockout HCT116, pilot screen, human colon tumor cells (AID 823);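 note: 0% = wells killed by 20 µM Hyamine and 100% = untreated DMSO cell wells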
condition.context: CellTiter-Glo, 60 h, at 10 µM, active compounds read low
Inconclusive results are not listed. Activity calls are given as the source filed them.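 How the source made its calls: active means cell viability at or below a set limit in both duplicate runs, the limit being the all-compound median minus 4 SD (cut at about 23% in these data, passing the limit was not always enough); inconclusive means no clear call, values can overlap the other calls; inactive means the rest.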
measured.quantity: viability

Specify viability for N#CC1=C2C=CC=CN2CC1=O and stop.
91.2% (inactive)

Specify viability for CCOC(=O)N1CCN(C(=O)C2CCN(Cc3nc(-c4ccccc4C)oc3C)CC2)CC1 and stop.
85.3% (inactive)

Specify viability for COC(=O)c1ccc(C2C(C(C)=O)=C(C)Nc3ncnn32)cc1 (stereo unspecified) and stop.
108% (inactive)

Specify viability for Cc1cccc(Nc2ncnc3nc[nH]c23)c1 and stop.
101% (inactive)

Specify viability for O=C(CCc1nc2ccccc2[nH]1)N1CCN(C(=O)c2ccco2)CC1 and stop.
101% (inactive)

New cases:
Specify viability for Cc1ccccc1-c1nc(CS(=O)CC(=O)NCc2ccccc2)c(C)o1 (stereo unspecified) and stop.
101% (inactive)

Specify viability for CC(=O)Nc1ccc(S(=O)(=O)N2CCN(c3ccc(C)c(Cl)c3)CC2)cc1 and stop.
98.3% (inactive)

Specify viability for CCSC1=C(C#N)C(c2ccccc2C)CC(=O)N1 (stereo unspecified) and stop.
92.5% (inactive)

Specify viability for COc1cc(C2C3=C(CC(C)(C)CC3=O)N(C)C(=O)N2C)cc(OC)c1OC (stereo unspecified) and stop.
104% (inactive)

Specify viability for O=C1C(O)CC2c3ccccc3CC3(CCCC3)N12 (stereo unspecified) and stop.
99.4% (inactive)

Specify viability for CC(C)Cc1ccc(C#N)c(SCC(N)=O)n1 and stop.
97.2% (inactive)

These measurements were taken from PubChem BioAssay.
